System: U-2932
Experiment: growth inhibition by drug plus 177Lu-lilotomab satetraxetan (1 - RLU/untreated control) (fraction); higher = stronger inhibition
Details: 10 nM; time (day): 5; 177Lu-lilotomab satetraxetan 1 ug/ml
Counter-ions that a name gives are not always drawn.
I'd be grateful if you could share measured growth inhibition by drug plus 177Lu-lilotomab satetraxetan for these entries.
Respond numerically, and do not add a unit to the figure.

For the record C#CCN(C)CC1=Cc2ccccc2Oc2ccccc21 , what value of growth inhibition by drug plus 177Lu-lilotomab satetraxetan is listed for U-2932? 0.128

Please give the result for O=C(O)Cc1cccc(OCCCN(Cc2cccc(C(F)(F)F)c2Cl)CC(c2ccccc2)c2ccccc2)c1 too. 0.143

Please give the result for CC(C)OC(=O)C1=CN(C(=O)c2ccc(F)c(F)c2)CC(C)(C)c2c1[nH]c1ccccc21 too. 0.14

Please give the result for CO[C@H]1C[C@@H]2CC[C@@H](C)[C@@](O)(O2)C(=O)C(=O)N2CCCC[C@H]2C(=O)O[C@H]([C@H](C)C[C@@H]2CC[C@@H](OC(=O)C(C)(CO)CO)[C@H](OC)C2)CC(=O)[C@H](C)/C=C(\C)[C@@H](O)[C@@H](OC)C(=O)[C@H](C)C[C@H](C)/C=C/C=C/C=C/1C too. 0.579

Please give the result for Oc1nc(-c2ccc(C(F)(F)F)cc2)nc2c1CSCC2 too. 0.0301

Please give the result for Fc1cc(-c2cccc3ncc(-c4cnn(C5CCNCC5)c4)nc23)cc(F)c1CN1CCOCC1 too. 0.15

Please give the result for COc1cc(Nc2ncc(F)c(Nc3ccc4c(n3)N(COP(=O)(O)O)C(=O)C(C)(C)O4)n2)cc(OC)c1OC too. 0.0539

Please give the result for CN(C)Cc1ccc(-c2nc3cccc4c3n2CCNC4=O)cc1 too. 0.0539

Please give the result for N#Cc1ccc(COC[C@H]2O[C@@H](n3c(NCc4ccc(Cl)c(Cl)c4)nc4c(N)ncnc43)[C@H](O)[C@@H]2O)cc1 too. 0.0723

Please give the result for CS(=O)(=O)c1ccc(C(=O)Nc2ccc(Cl)c(-c3ccccn3)c2)c(Cl)c1 too. 0.202

Please give the result for CNC(=O)c1ccccc1Sc1ccc2c(/C=C/c3ccccn3)n[nH]c2c1 too. 0.0505

Please give the result for Nc1ccc(-c2ccc3ncc4ccc(=O)n(-c5cccc(C(F)(F)F)c5)c4c3c2)cn1 too. 0.247

Please give the result for C#Cc1cccc(Nc2ncnc3cc(OCCOC)c(OCCOC)cc23)c1 [Erlotinib HCl] too. 0.208

Please give the result for CC(=O)O[C@]1(C(C)=O)CC[C@H]2[C@@H]3C[C@H](C)C4=CC(=O)CC[C@]4(C)[C@H]3CC[C@@]21C [Medroxyprogesterone acetate] too. 0.144

Please give the result for O=C(Nc1ccccc1-c1cn2c(CN3CCNCC3)csc2n1)c1cnc2ccccc2n1 too. 0.101

Please give the result for Cn1cnc([N+](=O)[O-])c1Sc1ncnc2[nH]cnc12 too. 0.101

###

System: U-2932
Test: growth inhibition by drug alone (1 - RLU/untreated control) (fraction); higher = stronger inhibition
Settings: 1000 nM; time (day): 6; 177Lu-lilotomab satetraxetan 0 ug/ml
I'd be grateful if you could share measured growth inhibition by drug alone for these entries.
Respond numerically, and do not add a unit to the figure.

Given the entry C[C@H](NC(=O)Cc1cc(F)cc(F)c1)C(=O)N[C@H](C(=O)OC(C)(C)C)c1ccccc1 , report its measured growth inhibition by drug alone. -0.0373

Please give the result for CCOc1ccc(Cc2cc([C@@H]3O[C@H](CO)[C@@H](O)[C@H](O)[C@H]3O)ccc2Cl)cc1 [Dapagliflozin] too. -0.143

Please give the result for COc1cc(Nc2ncc(F)c(Nc3ccc4c(n3)NC(=O)C(C)(C)O4)n2)cc(OC)c1OC [R406(free base)] too. 0.00754

Please give the result for C=CCc1cccc(/C=N/NC(=O)CN2CCN(Cc3ccccc3)CC2)c1O too. -0.0573
